// data source = paper PMC4336329

target: human ether-à-go-go-related gene (hERG) potassium channel (human, UniProt Q12809); assay: primary screen, population patch clamp on CHO cells stably expressing hERG; higher = less effect of the substance
Sequence (Q12809 whole entry, looked up): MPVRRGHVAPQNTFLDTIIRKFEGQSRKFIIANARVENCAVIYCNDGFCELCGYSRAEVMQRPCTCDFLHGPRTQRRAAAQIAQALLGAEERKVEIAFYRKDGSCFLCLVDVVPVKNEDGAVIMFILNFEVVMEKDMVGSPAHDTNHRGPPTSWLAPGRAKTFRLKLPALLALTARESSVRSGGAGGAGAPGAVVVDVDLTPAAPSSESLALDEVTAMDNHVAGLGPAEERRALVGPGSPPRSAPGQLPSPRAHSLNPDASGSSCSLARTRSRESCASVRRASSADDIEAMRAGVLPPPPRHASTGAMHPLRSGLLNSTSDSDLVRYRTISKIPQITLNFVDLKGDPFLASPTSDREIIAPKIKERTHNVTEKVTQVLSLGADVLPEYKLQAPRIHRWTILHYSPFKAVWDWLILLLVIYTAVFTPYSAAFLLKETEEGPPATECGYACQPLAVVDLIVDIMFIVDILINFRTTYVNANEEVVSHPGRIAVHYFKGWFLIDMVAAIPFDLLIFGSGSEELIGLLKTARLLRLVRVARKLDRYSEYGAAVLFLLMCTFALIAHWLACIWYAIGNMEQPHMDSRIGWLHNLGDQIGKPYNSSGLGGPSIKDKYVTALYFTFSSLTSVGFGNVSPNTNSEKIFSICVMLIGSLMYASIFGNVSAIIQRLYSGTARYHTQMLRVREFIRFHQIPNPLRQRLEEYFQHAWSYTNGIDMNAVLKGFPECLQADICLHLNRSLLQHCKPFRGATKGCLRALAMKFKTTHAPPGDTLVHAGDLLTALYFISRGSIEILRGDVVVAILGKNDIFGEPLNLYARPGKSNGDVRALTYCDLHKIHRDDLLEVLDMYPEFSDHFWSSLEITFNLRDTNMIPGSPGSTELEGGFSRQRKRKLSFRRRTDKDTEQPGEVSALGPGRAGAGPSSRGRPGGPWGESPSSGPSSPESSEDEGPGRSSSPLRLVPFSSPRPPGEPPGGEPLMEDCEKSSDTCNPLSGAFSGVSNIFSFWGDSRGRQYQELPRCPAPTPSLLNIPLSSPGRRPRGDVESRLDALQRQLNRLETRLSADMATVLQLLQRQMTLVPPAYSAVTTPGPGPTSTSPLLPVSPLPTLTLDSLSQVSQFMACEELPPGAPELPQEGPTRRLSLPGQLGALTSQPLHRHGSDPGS
Screen size: about 310,000 compounds; about 14,000 (4.5%) showed an effect of 50% or more. Effects have a minus sign here. This excerpt belongs to a sample that is enriched for strong results.
Respond with YES for hERG current change (%, negative = inhibition) at 10uM values of -40% and above, NO for values below.

Examples from the recorded data:
>>> answer_label("Cc1cc(N2CCN(C)CC2)nc2ccccc12")
"YES"
>>> answer_label("Cc1cc(N2CCCN(C)CC2)nc2cc(Cl)ccc12")
"NO"
>>> answer_label("COc1ccc2c(C)cc(N3CCOCC3)nc2c1")
"YES"

Identify whether the reported hERG current change (%, negative = inhibition) at 10uM of the following molecule is -40% or greater: Cc1cc(N2CCN(c3ccc(F)cc3)CC2)nc2cc(O)ccc12 NO

Identify whether the reported hERG current change (%, negative = inhibition) at 10uM of the following molecule is -40% or greater: Cc1cc(N2CCCC2)nc2ccccc12 NO

Identify whether the reported hERG current change (%, negative = inhibition) at 10uM of the following molecule is -40% or greater: COc1ccc2c(C)cc(N3CCN(c4ccc(F)cc4)CC3)nc2c1 YES

###

target: human ether-à-go-go-related gene (hERG) potassium channel (human, UniProt Q12809); assay: primary screen, population patch clamp on CHO cells stably expressing hERG; higher = less effect of the substance;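 also: peak tail current of the secondary pulse compared with the same well before compound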
The whole screen tested about 310,000 compounds, of which about 14,000 (4.5%) showed an effect of 50% or more. The effect is printed as a negative number. Shown is part of a subset that was picked to be rich in strong results.
This section presents molecules with their documented hERG current change (%, negative = inhibition) at 10uM values.
Write the quantity with the unit trailing the number.

// below: answered molecules
>>> endpoint_value("Cc1nc(NC(=O)CN2CCCCC2)sc1C(=O)N(C)C")
"1.37%"
>>> endpoint_value("O=C(Nc1cccc(F)c1)C1CCN(C(=O)c2ccco2)CC1")
"-26.4%"
>>> endpoint_value("CCn1c2ccccc2c2nnc(SCC(=O)N(C)C3CCS(=O)(=O)C3)nc21 (stereo not shown)")
"-21%"

What value of hERG current change (%, negative = inhibition) at 10uM has been reported for the following molecule? COc1ccc(C(=O)C2CCCN(Cc3cc(C)c(O)c(C)c3)C2)c(OC)c1 (stereo not shown) -61%

What value of hERG current change (%, negative = inhibition) at 10uM has been reported for the following molecule? CSc1nc2sccc2c(=O)[nH]1 32.8%

What value of hERG current change (%, negative = inhibition) at 10uM has been reported for the following molecule? COc1cccc(-c2cccc(NC(=O)C3CCN(Cc4ccc(CO)o4)CC3)c2)c1 -32.5%

What value of hERG current change (%, negative = inhibition) at 10uM has been reported for the following molecule? COc1ccc(C(=O)C2CCCN(Cc3ccc(C#CCCO)cc3)C2)c(OC)c1 (stereo not shown) -51.2%

What value of hERG current change (%, negative = inhibition) at 10uM has been reported for the following molecule? Cc1csc2ncc(C(=O)NCCC(c3ccccc3)c3ccccc3)c(=O)n12 -0.968%

###

molecular target: human ether-à-go-go-related gene (hERG) potassium channel (human); experiment: primary screen, population patch clamp on CHO cells stably expressing hERG; higher = less effect of the substance;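 also: peak tail current of the secondary pulse compared with the same well before compound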
The whole screen tested about 310,000 compounds, of which about 14,000 (4.5%) showed an effect of 50% or more. Effects have a minus sign here. The sample as a whole holds a higher share of strong results than the screen did.
measurement kind: hERG current change (%, negative = inhibition) at 10uM (%)
Use % as the unit, but write only the number.

What value of hERG current change (%, negative = inhibition) at 10uM has been reported for the following compound? COCCNC(=O)c1ccc2c(c1)S(=O)(=O)c1cc(Cl)ccc1C2=O -3.38

What value of hERG current change (%, negative = inhibition) at 10uM has been reported for the following compound? CSc1ncccc1C(=O)NCCc1ccccc1 7.94

What value of hERG current change (%, negative = inhibition) at 10uM has been reported for the following compound? CC(C)(C)NCC(O)COc1cccc2[nH]c(=O)[nH]c12.Cl (stereo not shown) 7.11

What value of hERG current change (%, negative = inhibition) at 10uM has been reported for the following compound? CN(C)c1ccc2c3c(ccc(N(C)C)c13)COC2 -34.8

What value of hERG current change (%, negative = inhibition) at 10uM has been reported for the following compound? COc1ccc(CCC(=O)N(c2nnc(-c3cccnc3)s2)C(C)C)cc1.Cl -49.6

What value of hERG current change (%, negative = inhibition) at 10uM has been reported for the following compound? COc1cccc(CNC(=O)CN(C)S(=O)(=O)c2ccc3c(c2)n(C)c(=O)c(=O)n3C)c1 10.3

What value of hERG current change (%, negative = inhibition) at 10uM has been reported for the following compound? NS(=O)(=O)c1ccc(CNC(=S)NCc2ccc(F)cc2)cc1 9.61

What value of hERG current change (%, negative = inhibition) at 10uM has been reported for the following compound? CC(C)(C)NCC(O)COc1ccccc1C(=O)CCc1ccccc1.Cl (stereo not shown) -69.9

What value of hERG current change (%, negative = inhibition) at 10uM has been reported for the following compound? O=C(CCCC(=O)OCC(F)(F)C(F)F)Nc1ccccc1F 14.8

What value of hERG current change (%, negative = inhibition) at 10uM has been reported for the following compound? CCN(CC)CC(O)COc1ccccc1C(=O)CCc1ccccc1 (stereo not shown) -3.49

###

biological target: human ether-à-go-go-related gene (hERG) potassium channel (human); assay: primary screen, population patch clamp on CHO cells stably expressing hERG; higher = less effect of the substance;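 also: peak tail current of the secondary pulse compared with the same well before compound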
Out of some 310,000 compounds screened, about 14,000 (4.5%) showed an effect of 50% or more. Effects have a minus sign here. This excerpt belongs to a sample that is enriched for strong results.
measurement kind: hERG current change (%, negative = inhibition) at 10uM (%)
Use % as the unit, but write only the number.

// below: answered molecules
>>> endpoint_value("Cc1cccc(N2CCN(S(=O)(=O)c3ccc4c(c3)NC(=O)C(C)S4)CC2)c1C (centres unmarked)")
-2.54
>>> endpoint_value("O=C(CSc1ccccn1)Nc1cccc(NC(=O)CSc2ccccn2)n1")
-11.9
>>> endpoint_value("Cc1ccc2oc(=O)c3cc(C(=O)NCCN4CCN(C)CC4)sc3c2c1")
-18.2
>>> endpoint_value("Cc1cnccc1CN(C)Cc1cn(C)nc1-c1ccc(Oc2ccccc2)cc1")
-27.4
>>> endpoint_value("O=C(/C=C/N1CCN(Cc2ccccc2)CC1)C(F)(F)F")
4.36

What value of hERG current change (%, negative = inhibition) at 10uM has been reported for the following molecule? CC(=NCCCn1ccnc1)c1c(O)n(C)c(=O)n(C)c1=O -9.42

What value of hERG current change (%, negative = inhibition) at 10uM has been reported for the following molecule? COc1ccc(C(=O)COC(=O)Cn2cnc3c2c(=O)n(C)c(=O)n3C)c(OC)c1 3.76

What value of hERG current change (%, negative = inhibition) at 10uM has been reported for the following molecule? Cn1cc(CNCc2cnc3ccccn23)c(-c2ccc(Oc3ccccc3)cc2)n1 -50

What value of hERG current change (%, negative = inhibition) at 10uM has been reported for the following molecule? O=C(CC1C(=O)NCCN1Cc1ccccc1C(F)(F)F)NCCN1CCCCC1=O (centres unmarked) 16.9

What value of hERG current change (%, negative = inhibition) at 10uM has been reported for the following molecule? CCc1ccc(CN2CCC(n3nccc3NC(=O)c3cccc(F)c3)CC2)cc1 -75.3

What value of hERG current change (%, negative = inhibition) at 10uM has been reported for the following molecule? CCCCCCNCc1ccc(Br)cc1.Cl -61.7

What value of hERG current change (%, negative = inhibition) at 10uM has been reported for the following molecule? CCN(CC)c1ccc(CNCCc2ccccc2F)cc1.Cl -5.46

What value of hERG current change (%, negative = inhibition) at 10uM has been reported for the following molecule? CCCc1[nH]n(-c2ccc([N+](=O)[O-])cc2)c(=O)c1C=NCCc1c[nH]c2ccccc12 8.42

###

target: human ether-à-go-go-related gene (hERG) potassium channel (human, UniProt Q12809); assay: primary screen, population patch clamp on CHO cells stably expressing hERG; higher = less effect of the substance;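 also: peak tail current of the secondary pulse compared with the same well before compound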
Among all 310,000 compounds or so, about 14,000 (4.5%) showed an effect of 50% or more. The effect is printed as a negative number. Only a selection was taken, and strong results are over-represented in it overall.
This section presents molecules with their documented hERG current change (%, negative = inhibition) at 10uM values.
Use % as the unit, but write only the number.

>>> endpoint_value("CCOC(=O)C1CCN(C(=O)C2CCN(S(=O)(=O)c3cc(Cl)ccc3Cl)CC2)CC1")
-30.1
>>> endpoint_value("O=C(COc1ccc(S(=O)(=O)NC2CCCCC2)cc1)NCCC1=CCCCC1")
2.33
>>> endpoint_value("COc1ccc(C(CNc2ncnc3sc(C)c(C)c23)N(C)C)cc1 (stereo not drawn)")
-56.4
>>> endpoint_value("O=[N+]([O-])c1ccc(Nc2ccc(Cl)cc2)nc1")
21.7
>>> endpoint_value("O=[N+]([O-])c1ccc(NNS(=O)(=O)c2cc(Cl)ccc2Cl)nc1")
-68.8
>>> endpoint_value("CCOC(=O)C1=C(COC(=O)COc2ccc(Br)cc2)NC(=O)NC1C (stereo not drawn)")
2.16
>>> endpoint_value("Cc1sc2ncnc(NCC(O)c3ccccc3)c2c1C (stereo not drawn)")
17.7
>>> endpoint_value("CCc1ccc(N2CC(O)(c3cccs3)[N+]3=C2SCCC3)cc1.[Br-] (stereo not drawn)")
-70
>>> endpoint_value("Cc1nc(NCc2ccc(S(N)(=O)=O)cc2)c2c(C)c(C)sc2n1")
2.83
>>> endpoint_value("COc1ccc(CCNC(=O)C2CCN(S(=O)(=O)N3CCC4(CC3)OCCO4)CC2)cc1OC")
1.93

What value of hERG current change (%, negative = inhibition) at 10uM has been reported for the following molecule? CCc1nn(CC(=O)NCCCc2ccccc2)c(=O)c2cc3cc(F)ccc3n12 1.58

What value of hERG current change (%, negative = inhibition) at 10uM has been reported for the following molecule? Cc1sc2ncnc(NCC(O)c3ccc([N+](=O)[O-])cc3)c2c1C (stereo not drawn) -71.6

What value of hERG current change (%, negative = inhibition) at 10uM has been reported for the following molecule? Cc1cccc(C(=O)NC(=S)NNC(=O)Cc2ccccc2)c1 3.66

What value of hERG current change (%, negative = inhibition) at 10uM has been reported for the following molecule? Cc1sc2ncnc(N[C@@H](CCC(=O)O)C(=O)O)c2c1C 10.1

What value of hERG current change (%, negative = inhibition) at 10uM has been reported for the following molecule? COC(=O)c1ccccc1NC(=O)N1CCCC1 -11.9

What value of hERG current change (%, negative = inhibition) at 10uM has been reported for the following molecule? COc1ccc(-c2csc3ncnc(N4CCN(S(=O)(=O)c5cccc(F)c5)CC4)c23)cc1 -3.5
